biological target: T1, h-FAP-His (human, UniProt Q12884 26-760); assay: SPR, antibody captured by anti-human IgG Fc, h-FAP-His analyte
T1 construct: range 26-760; Bought recombinant protein with a His tag; also called human FAP-His protein; FAP recombinant protein with a His tag
T1 sequence (Q12884 26-760 limits assumed): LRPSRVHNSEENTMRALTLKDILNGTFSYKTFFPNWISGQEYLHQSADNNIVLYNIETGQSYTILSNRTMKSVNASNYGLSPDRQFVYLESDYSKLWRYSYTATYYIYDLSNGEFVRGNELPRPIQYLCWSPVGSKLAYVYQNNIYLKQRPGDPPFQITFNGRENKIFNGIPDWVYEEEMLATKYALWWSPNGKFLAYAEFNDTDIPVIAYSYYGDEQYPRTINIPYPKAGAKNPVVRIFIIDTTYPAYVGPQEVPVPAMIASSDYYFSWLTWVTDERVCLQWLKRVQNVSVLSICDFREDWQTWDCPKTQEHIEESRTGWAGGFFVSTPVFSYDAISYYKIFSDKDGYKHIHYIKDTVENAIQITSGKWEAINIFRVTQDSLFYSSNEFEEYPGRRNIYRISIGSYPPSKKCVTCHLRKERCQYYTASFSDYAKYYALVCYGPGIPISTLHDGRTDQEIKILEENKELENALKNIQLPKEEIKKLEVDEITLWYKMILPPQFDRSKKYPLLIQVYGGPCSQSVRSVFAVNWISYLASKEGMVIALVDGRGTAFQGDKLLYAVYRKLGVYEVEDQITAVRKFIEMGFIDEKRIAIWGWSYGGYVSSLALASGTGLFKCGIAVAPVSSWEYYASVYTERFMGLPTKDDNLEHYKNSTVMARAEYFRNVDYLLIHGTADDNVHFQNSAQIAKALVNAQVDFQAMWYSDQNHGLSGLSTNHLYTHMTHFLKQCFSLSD
measureName: Ratio of Kd of 28H1 to Kd of test antibody
Answer field: number only, no words.

Data request: Name the recorded Ratio of Kd of 28H1 to Kd of test antibody of the binder listed here: Ab10 (antibody, human IgG1, kappa, L234A L235A, V domains shown, Fully human, IgG1 / kappa; also called anti-FAP antibody Ab10; Ab110) VH: QVQLQQSGVEVKKPGASVTVSCRASGYSFADHFIHWVRQAPGQGFQWMGWINPNRGVTHHAQDFQGRVAMTRDMSTDTVYMELTSLRSDDTAVYYCARDASLTARPYYFYGFDVWGQGTLVTVSS VL: DIQMTQSPSSVSASVGDRVTITCRASQGISSWLAWYQQKPGKAPKLLIYAASSLQSGVPSRFSGSGSGTDFTLTISSLQPEDFATYYCQQANSFPPAFGQGTKVEIKR
Data returned: 3.5

Data request: Name the recorded Ratio of Kd of 28H1 to Kd of test antibody of the binder listed here: Ab9 (antibody, human IgG1, kappa, L234A L235A, V domains shown, Fully human, IgG1 / kappa; also called anti-FAP antibody Ab9) VH: QMQLVQSGAEVKKPGASVTVSCRASGYSFADHFIHWVRQAPGQGFQWMGWINPNRGVTHHAQDFQGRVAMTRDMSTDTVYMELTSLRSDDTAVYYCARDESLTARPYYFYGFDVWGQGTLVTVSS VL: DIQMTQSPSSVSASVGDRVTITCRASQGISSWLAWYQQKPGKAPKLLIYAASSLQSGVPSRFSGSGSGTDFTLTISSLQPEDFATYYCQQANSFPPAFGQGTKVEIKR
Data returned: 3.54

Data request: Name the recorded Ratio of Kd of 28H1 to Kd of test antibody of the binder listed here: Ab14 (antibody, human IgG1, kappa, L234A L235A, V domains shown, Fully human, IgG1 / kappa; also called anti-FAP antibody Ab14; Ab114) VH: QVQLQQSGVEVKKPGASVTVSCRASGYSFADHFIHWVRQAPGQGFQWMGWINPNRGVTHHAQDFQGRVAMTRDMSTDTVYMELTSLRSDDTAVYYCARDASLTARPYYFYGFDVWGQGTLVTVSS VL: EIVLTQSPSSVSASVGDRVTITCRASQGISSWLAWYQQKPGKAPKLLIYAASSLQSGVPSRFSGSGSGTDFTLTISSLQPEDFATYYCQQANSFPLTFGGGTKVEIKR
Data returned: 2.1

Data request: Name the recorded Ratio of Kd of 28H1 to Kd of test antibody of the binder listed here: Ab15 (antibody, human IgG1, kappa, L234A L235A, V domains shown, Fully human, IgG1 / kappa; also called anti-FAP antibody Ab15) VH: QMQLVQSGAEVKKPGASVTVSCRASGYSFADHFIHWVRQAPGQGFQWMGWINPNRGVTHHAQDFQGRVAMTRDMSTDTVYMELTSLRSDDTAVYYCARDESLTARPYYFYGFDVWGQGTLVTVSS VL: EIVLTQSPSSVSASVGDRVTITCRASQGISSWLAWYQQKPGKAPKSLIYAASSLQSGVPSRFSGSGSGTDFTLTISSLQPEDFATYYCQQANSFPPTFGGGTKVEIKR
Data returned: 2.43
